Just for reference, patent US20250042894A1 is where these values come from.

Record form. Attribute: IC50. Fill in for each entry.
system: His tagged full-length PTPN1 protein (Homo sapiens)
Sequence (P18031 1-435): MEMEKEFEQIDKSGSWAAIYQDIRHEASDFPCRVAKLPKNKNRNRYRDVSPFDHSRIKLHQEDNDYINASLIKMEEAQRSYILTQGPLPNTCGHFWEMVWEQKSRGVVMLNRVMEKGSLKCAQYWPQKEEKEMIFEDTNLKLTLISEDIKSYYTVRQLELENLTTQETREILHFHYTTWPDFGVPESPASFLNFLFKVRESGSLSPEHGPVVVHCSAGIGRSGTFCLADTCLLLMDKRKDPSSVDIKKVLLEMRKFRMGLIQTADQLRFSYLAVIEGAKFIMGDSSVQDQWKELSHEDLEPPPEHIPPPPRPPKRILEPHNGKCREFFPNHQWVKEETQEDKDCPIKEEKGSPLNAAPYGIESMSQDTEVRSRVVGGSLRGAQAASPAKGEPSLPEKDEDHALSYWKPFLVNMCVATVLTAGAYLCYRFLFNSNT

Read the entry CC(C)(C)OC(=O)N[C@@H]1CSc2cc(O)c(N3CC(=O)NS3(=O)=O)c(F)c2C1 and write its reported IC50.
> 100 nM

For the molecule CCC(C)(C)CCN[C@@H]1CSc2cc(O)c(N3CC(=O)NS3(=O)=O)c(F)c2C1 , report IC50.
10 to 100 nM

Give the measured IC50 for CCC(C)CCN[C@@H]1CSc2cc(O)c(N3CC(=O)NS3(=O)=O)c(F)c2C1 (some centres unmarked)
< 10 nM

Determine its reported IC50: O=C1CN(c2c(O)cc3c(c2F)C[C@H](NCCc2ccccc2)CS3)S(=O)(=O)N1
10 to 100 nM

Specify measured IC50 for CC(CCN[C@@H]1CSc2cc(O)c(N3CC(=O)NS3(=O)=O)c(F)c2C1)c1ccccc1 (some centres unmarked) .
10 to 100 nM

Using known records, supply IC50 for CC1(CCN[C@@H]2CSc3cc(O)c(N4CC(=O)NS4(=O)=O)c(F)c3C2)CC1
10 to 100 nM

For the molecule O=C1CN(c2c(O)cc3c(c2F)C[C@H](NCCCn2cccn2)CS3)S(=O)(=O)N1 , report IC50.
> 100 nM

Specify measured IC50 for O=C1CN(c2c(O)cc3c(c2F)C[C@H](NCC2CC2(F)F)CS3)S(=O)(=O)N1 (some centres unmarked) .
10 to 100 nM

* * *

So I've got a bunch of compounds here, and I need their pEC50 values.
Test system: IFNγ-induced STAT1 phosphorylation (pSTAT1) in B16F10 cells
experimentalDetails: B16F10 Phospho-STAT1 HTRF proximal pharmacodynamic (PD) assay
Assay type: cell-based, murine
protocolConditions: B16-F10; Table 2; 3 hours compound, then mouse IFNγ 100 nM 10 minutes; top dose 50 μM; read-out: B16F10 IFNγ Induced pSTAT1 EC50
Please express pEC50 as -log10 of the molar concentration.

Output pEC50 of CCC(C)CCN[C@@H]1CSc2cc(O)c(N3CC(=O)NS3(=O)=O)c(F)c2C1 (some centres unmarked) [Compound 108]
5.75

Quote pEC50 reported for O=C1CN(c2c(O)cc3c(c2F)C[C@H](NCCc2ccccc2)CS3)S(=O)(=O)N1 [Compound 123] please.
5.56

Could you please provide reported pEC50 for O=C1CN(c2c(O)cc3c(c2F)C[C@H](NCCC2(CO)CCCC2)CS3)S(=O)(=O)N1 [Compound 105] ? Thanks!
5.32

Entry CC(F)(F)CCCN[C@@H]1CSc2cc(O)c(N3CC(=O)NS3(=O)=O)c(F)c2C1 [Compound 129] needs its pEC50 filled in; supply it.
6.23

Give recorded pEC50. O=C1CN(c2c(O)cc3c(c2F)C[C@H](NCCC2CCOC2)CS3)S(=O)(=O)N1 (some centres unmarked) [Compound 114]
5.75

// fetch pEC50 given entry O=C1CN(c2c(O)cc3c(c2F)C[C@H](NCCC2CC(F)(F)C2)CS3)S(=O)(=O)N1 [Compound 117]
6.14
